These data points were gathered from patent US20240059758A1.

TARGET_OR_TEST_SYSTEM: receptor binding domain (RBD) of the S1-subunit of SARS-CoV-2 glycoprotein S (SARS-CoV-2, UniProt P0DTC2 319-541)
ASSAY_EXPLANATION: ACE2:RBD competition assay, 5 µg/ml IgG
Entries annotated with measured ACE2:RBD inhibition with 5 µg/ml IgG [%]
MEASURED_ATTRIBUTE: ACE2:RBD inhibition with 5 µg/ml IgG [%] (%)

BINDER	REPORTED_VALUE
YU505-E01 (antibody, V domains shown) VH: QVQLVQSGAEVKKPGSSVKVSCKASGGTFSSYSIVWVRQAPGQGLEWMGGIIPIFGTTNYAQKFQGRVTITADESTSTAFMELSNLKSEDTAVYFCARSLGATRDYWGQGTLVTVSS VL: SYVLTQPPSVSEAPRQRVTISCSGSSSNIGNNAVNWYQQLPGKAPKLLIYYDDLLPSGVSDRFSGSKSGTSASLAISGLQSEDEADYYCAAWDDSLNGPVFGGGTKVTVL	24
YU505-F05 (antibody, V domains shown) VH: EVQLLESGGGVVQPGRSLRLSCAASGFTFSSYGMHWVRQAPGKGLEWVAVMSYDGSKKYYADSVKGRFTISRDNSKNTLYLQMNSLRAEDTAVYYCVTQGMDVWGQGTLVTVSS VL: QSVLTQPPSVSVAPGKTARITCGGNNIGSKSVHWYQQKPGQAPVLVIYYISDRPSGIPERFSGSNSGNTATLTISRVEAGDEAAYYCHVWDSSSDHVVFGGGTKLTVL	26.7
